System: RPLP2 protein
Test Details: Target protein reduction by Western blot in HepG2.2.15 cells
Assay type: cell-based, human
Assay Setup: 10 nM siRNA, 72 h
Entries and their Target protein reduction in HepG2.2.15 cells values follow.
Respond with the bare value in %.

Substance | Target System | Numeric Value
51 (GAAGAUCUUGGACAGCGUGTTCACGCUGUCCAAGAUCUUCTT; siRNA; Self-complementary hairpin strand, chemistry not given here, further chemistry not given here; listed as Homo sapiens) [compound 51] | RPLP2 protein | 56

Exam item: # query: Target protein reduction in HepG2.2.15 cells of entry 46 (GAAAGAUGAGAAGAAGGAGGAUUUCCUCCUUCUUCUCAUCUUUCUU; siRNA; Self-complementary hairpin strand, chemistry not given here, further chemistry not given here; listed as Homo sapiens) [compound 46]
Marked response: 56

###

Entries and their pEC50 values follow.
Tested on: HBsAg
Assay Setup: read-out: EC50, Extracell. HBsAg reduction; HepG2.2.15 cells
Formally, pEC50 is defined as -log10 of the concentration c, with c in mol/L.

Use the examples below as a reference point.
Substance | pEC50
40 (AGUCUGAAGAGUCAGAUGAUGUUCAUCAUCUGACUCUUCAGACUUU; siRNA; Self-complementary hairpin strand, chemistry not given here, further chemistry not given here; listed as Homo sapiens) [compound 40] | 9.94
44 (UGAGCUGAAUGGAAAAAACAUUUAUGUUUUUUCCAUUCAGCUCAUU; siRNA; Self-complementary hairpin strand, chemistry not given here, further chemistry not given here; listed as Homo sapiens) [compound 44] | 10.08
21 (CUGUUACAAUCAAGGUCUATTUAGACCUUGAUUGUAACAGTT; siRNA; Self-complementary hairpin strand, chemistry not given here, further chemistry not given here; listed as Homo sapiens) [compound 21] | 8.80
47 (UGGCCUUUUUGAUUAAAUUTTAAUUUAAUCAAAAAGGCCAAA; siRNA; Self-complementary hairpin strand, chemistry not given here, further chemistry not given here; listed as Homo sapiens) [compound 47] | 10.15

Exam item: # query: pEC50 of entry 49 (AAACAUUGAAGACGUCAUUTTAAUGACGUCUUCAAUGUUUTT; siRNA; Self-complementary hairpin strand, chemistry not given here, further chemistry not given here; listed as Homo sapiens) [compound 49]
Marked response: 10.59

Exam item: # query: pEC50 of entry 46 (GAAAGAUGAGAAGAAGGAGGAUUUCCUCCUUCUUCUCAUCUUUCUU; siRNA; Self-complementary hairpin strand, chemistry not given here, further chemistry not given here; listed as Homo sapiens) [compound 46]
Marked response: 8.96

Exam item: # query: pEC50 of entry 51 (GAAGAUCUUGGACAGCGUGTTCACGCUGUCCAAGAUCUUCTT; siRNA; Self-complementary hairpin strand, chemistry not given here, further chemistry not given here; listed as Homo sapiens) [compound 51]
Marked response: 10.00

Exam item: # query: pEC50 of entry 41 (AUGGGAUUUGGCCUUUUUGAUUUAUCAAAAAGGCCAAAUCCCAUUU; siRNA; Self-complementary hairpin strand, chemistry not given here, further chemistry not given here; listed as Homo sapiens) [compound 41]
Marked response: 9.68

###

Entries and their OC43 vRNA reduction siRNA and siGRP78 values follow.
System: HCoV-OC43
Test Details: OC43 virion RNA, Branched DNA assay, infected HCT8 cells
Assay type: cell-based, human coronavirus OC43
Assay Setup: 10 nM siRNA along with 10 nM of siRNA targeting GRP78, HCT8 cells
Respond with the bare value in %.

Substance | OC43 vRNA reduction siRNA and siGRP78 [%]
22 (CAUCUACGUGGGUAACUUAUUUAAGUUACCCACGUAGAUGUU; siRNA; Self-complementary hairpin strand, chemistry not given here, further chemistry not given here; listed as Homo sapiens) [compound 22] | 85

Exam item: # query: OC43 vRNA reduction siRNA and siGRP78 of entry 51 (GAAGAUCUUGGACAGCGUGTTCACGCUGUCCAAGAUCUUCTT; siRNA; Self-complementary hairpin strand, chemistry not given here, further chemistry not given here; listed as Homo sapiens) [compound 51]
Marked response: 90
